This section presents molecules with their documented IC50 values.
target or test system: Mitogen-activated protein kinase 14 (Homo sapiens)
procedure details: Inhibition of p38alpha MAP kinase in human whole blood assessed as inhibition of LPS-induced TNFalpha release by ELISA

{"chemical string": "O=C1c2cc(OCCC3CCOCC3)ccc2COc2cc(Nc3ccc(F)cc3F)ccc21", "target or test system": "Mitogen-activated protein kinase 14 (Homo sapiens)", "IC50 / µM": 0.364}
{"chemical string": "O=C1c2ccc(OCC[C@@H](O)CO)cc2COc2cc(Nc3ccc(F)cc3F)ccc21", "target or test system": "Mitogen-activated protein kinase 14 (Homo sapiens)", "IC50 / µM": 37.9}
{"chemical string": "O=C(Nc1cccc(Nc2ccc3c(c2)OCc2c(OCCN4CCOCC4)cccc2C3=O)c1)c1ccoc1", "target or test system": "Mitogen-activated protein kinase 14 (Homo sapiens)", "IC50 / µM": 51.4}
{"chemical string": "O=C(Nc1ccc(F)c(Nc2ccc3c(c2)OCc2ccc(OCCN4CCOCC4)cc2C3=O)c1)c1ccccc1", "target or test system": "Mitogen-activated protein kinase 14 (Homo sapiens)", "IC50 / µM": 1.56}
{"chemical string": "CC1(C)OC[C@@H](COc2ccc3c(c2)COc2cc(Nc4ccc(F)cc4F)ccc2C3=O)O1", "target or test system": "Mitogen-activated protein kinase 14 (Homo sapiens)", "IC50 / µM": 91.2}
{"chemical string": "COc1ccc2c(c1)COc1cc(Nc3ccccc3N)ccc1C2=O", "target or test system": "Mitogen-activated protein kinase 14 (Homo sapiens)", "IC50 / µM": 71.8}
{"chemical string": "CCN(CC)CCOc1ccc2c(c1)C(=O)c1ccc(Nc3ccc(F)cc3F)cc1OC2", "target or test system": "Mitogen-activated protein kinase 14 (Homo sapiens)", "IC50 / µM": 1.06}
{"chemical string": "O=C1c2ccc(Nc3ccc(F)cc3F)cc2OCc2c(OC[C@@H](O)CO)cccc21", "target or test system": "Mitogen-activated protein kinase 14 (Homo sapiens)", "IC50 / µM": 90.4}
{"chemical string": "Cc1cc(F)c(NC(=O)c2ccsc2)cc1Nc1ccc2c(c1)OCc1ccc(OC[C@H]3COC(C)(C)O3)cc1C2=O", "target or test system": "Mitogen-activated protein kinase 14 (Homo sapiens)", "IC50 / µM": 0.287}
{"chemical string": "O=C1c2ccc(OC[C@@H](O)CO)cc2COc2cc(Nc3ccc(F)cc3F)ccc21", "target or test system": "Mitogen-activated protein kinase 14 (Homo sapiens)", "IC50 / µM": 28.2}
{"chemical string": "Nc1cc(F)ccc1Nc1ccc2c(c1)OCc1cc(OCCN3CCOCC3)ccc1C2=O", "target or test system": "Mitogen-activated protein kinase 14 (Homo sapiens)", "IC50 / µM": 94.8}
{"chemical string": "Nc1ccc2c(c1)C(=O)c1ccc(Nc3ccc(F)cc3N)cc1OC2", "target or test system": "Mitogen-activated protein kinase 14 (Homo sapiens)", "IC50 / µM": 1.17}
{"chemical string": "CC1(C)OC[C@@H](COc2ccc3c(c2)C(=O)c2ccc(Nc4ccc(F)cc4F)cc2OC3)O1", "target or test system": "Mitogen-activated protein kinase 14 (Homo sapiens)", "IC50 / µM": 1.44}
{"chemical string": "Nc1ccccc1Nc1ccc2c(c1)OCc1ccc(OCCN3CCOCC3)cc1C2=O", "target or test system": "Mitogen-activated protein kinase 14 (Homo sapiens)", "IC50 / µM": 0.49}
{"chemical string": "O=C1c2cc(OCCCO)ccc2COc2cc(Nc3ccc(F)cc3F)ccc21", "target or test system": "Mitogen-activated protein kinase 14 (Homo sapiens)", "IC50 / µM": 0.631}
{"chemical string": "O=C1c2cc(OCCO)ccc2COc2cc(Nc3ccc(F)cc3F)ccc21", "target or test system": "Mitogen-activated protein kinase 14 (Homo sapiens)", "IC50 / µM": 0.588}
{"chemical string": "COc1ccc2c(c1)C(=O)c1ccc(Nc3ccc(F)cc3F)cc1CC2", "target or test system": "Mitogen-activated protein kinase 14 (Homo sapiens)", "IC50 / µM": 1.65}

* * *

target or test system: Mitogen-activated protein kinase 14 (Homo sapiens, UniProt Q16539)
Sequence (Q16539 whole entry): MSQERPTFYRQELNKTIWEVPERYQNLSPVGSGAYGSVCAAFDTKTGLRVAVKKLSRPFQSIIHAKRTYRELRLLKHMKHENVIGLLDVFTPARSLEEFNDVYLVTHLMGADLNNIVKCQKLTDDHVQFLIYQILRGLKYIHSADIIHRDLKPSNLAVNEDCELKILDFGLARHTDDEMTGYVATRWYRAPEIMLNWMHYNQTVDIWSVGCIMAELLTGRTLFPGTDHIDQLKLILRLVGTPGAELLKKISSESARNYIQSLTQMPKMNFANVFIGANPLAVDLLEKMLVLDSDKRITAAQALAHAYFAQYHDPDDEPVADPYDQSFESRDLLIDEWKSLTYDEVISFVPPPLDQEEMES
procedure details: Competitive inhibition of p38alpha MAP kinase (unknown origin) in presence of 100 uM ATP
pIC50: −log10 of the molar value.
Record T whenever pIC50 is at 7 or higher; record F when lower.

{"chemical string": "CC1(C)OC[C@@H](CCOc2ccc3c(c2)COc2cc(Nc4ccc(F)cc4F)ccc2C3=O)O1", "target or test system": "Mitogen-activated protein kinase 14 (Homo sapiens, UniProt Q16539)", "qualitative label": "F"}
{"chemical string": "O=C1c2cc(NCCN3CCOCC3)ccc2COc2cc(Oc3ccc(F)cc3F)ccc21", "target or test system": "Mitogen-activated protein kinase 14 (Homo sapiens, UniProt Q16539)", "qualitative label": "F"}
{"chemical string": "Cc1cc(F)c(NC(=O)c2ccsc2)cc1Nc1ccc2c(c1)OCc1ccc(OC[C@H](O)CO)cc1C2=O", "target or test system": "Mitogen-activated protein kinase 14 (Homo sapiens, UniProt Q16539)", "qualitative label": "T"}
{"chemical string": "COc1ccc2c(c1)C(=O)c1ccc(Nc3ccc(F)cc3F)cc1CC2", "target or test system": "Mitogen-activated protein kinase 14 (Homo sapiens, UniProt Q16539)", "qualitative label": "T"}
{"chemical string": "CC1(C)OC[C@H](COc2cccc3c2COc2cc(Nc4ccc(F)cc4F)ccc2C3=O)O1", "target or test system": "Mitogen-activated protein kinase 14 (Homo sapiens, UniProt Q16539)", "qualitative label": "F"}
{"chemical string": "Nc1ccc2c(c1)C(=O)c1ccc(Oc3ccc(F)cc3F)cc1OC2", "target or test system": "Mitogen-activated protein kinase 14 (Homo sapiens, UniProt Q16539)", "qualitative label": "F"}
{"chemical string": "CC1(C)OC[C@@H](COc2ccc3c(c2)C(=O)c2ccc(Nc4ccc(F)cc4F)cc2OC3)O1", "target or test system": "Mitogen-activated protein kinase 14 (Homo sapiens, UniProt Q16539)", "qualitative label": "F"}
{"chemical string": "COc1ccc2c(c1)COc1cc(Nc3ccc(F)cc3F)ccc1C2=O", "target or test system": "Mitogen-activated protein kinase 14 (Homo sapiens, UniProt Q16539)", "qualitative label": "F"}
{"chemical string": "Nc1ccc2c(c1)C(=O)c1ccc(Nc3ccc(F)cc3F)cc1OC2", "target or test system": "Mitogen-activated protein kinase 14 (Homo sapiens, UniProt Q16539)", "qualitative label": "T"}
{"chemical string": "O=C1c2ccc(Nc3ccc(F)cc3F)cc2OCc2cccc(OC[C@@H](O)CO)c21", "target or test system": "Mitogen-activated protein kinase 14 (Homo sapiens, UniProt Q16539)", "qualitative label": "F"}
{"chemical string": "O=C1c2ccc(OC[C@@H](O)CO)cc2COc2cc(Nc3ccc(F)cc3F)ccc21", "target or test system": "Mitogen-activated protein kinase 14 (Homo sapiens, UniProt Q16539)", "qualitative label": "T"}
{"chemical string": "O=C(Nc1ccc(F)c(Nc2ccc3c(c2)OCc2c(OCCN4CCOCC4)cccc2C3=O)c1)c1ccccc1", "target or test system": "Mitogen-activated protein kinase 14 (Homo sapiens, UniProt Q16539)", "qualitative label": "T"}

* * *

This section presents compounds with their documented pIC50 values.
target or test system: Mitogen-activated protein kinase 14 (Homo sapiens, UniProt Q16539)
procedure details: Competitive inhibition of p38alpha MAP kinase (unknown origin) in presence of 100 uM ATP
pIC50: −log10 of the molar value.

{"chemical string": "Nc1ccc2c(c1)C(=O)c1ccc(Nc3ccccc3F)cc1OC2", "pIC50": 6.95}
{"chemical string": "Nc1ccc2c(c1)C(=O)c1ccc(Nc3ccc(F)cc3N)cc1OC2", "pIC50": 6.82}
{"chemical string": "Nc1ccc2c(c1)C(=O)c1ccc(Nc3cc(F)c(F)cc3F)cc1OC2", "pIC50": 7.13}
{"chemical string": "O=C1c2cc(O)ccc2COc2cc(Nc3ccc(F)cc3F)ccc21", "pIC50": 6.91}
{"chemical string": "COc1cccc2c1COc1cc(Nc3ccc(F)cc3N)ccc1C2=O", "pIC50": 7.06}
{"chemical string": "Nc1cc(F)ccc1Nc1ccc2c(c1)OCc1c(OCCN3CCOCC3)cccc1C2=O", "pIC50": 7.14}
{"chemical string": "Nc1ccc2c(c1)C(=O)c1ccc(Nc3ccc(F)cc3)cc1OC2", "pIC50": 6.99}
